Each recorded value in this set is attributed to patent US20140087995A1.

Target: T1, rat calcitonin receptor (rat, UniProt P32214 25-516)
T1 construct: whole, on cells; membranes of transiently transfected BHK tk'ts 13 cells (Assay VIII); also called rCTR; rat calcitonin (a) receptor
T1 sequence (looked up): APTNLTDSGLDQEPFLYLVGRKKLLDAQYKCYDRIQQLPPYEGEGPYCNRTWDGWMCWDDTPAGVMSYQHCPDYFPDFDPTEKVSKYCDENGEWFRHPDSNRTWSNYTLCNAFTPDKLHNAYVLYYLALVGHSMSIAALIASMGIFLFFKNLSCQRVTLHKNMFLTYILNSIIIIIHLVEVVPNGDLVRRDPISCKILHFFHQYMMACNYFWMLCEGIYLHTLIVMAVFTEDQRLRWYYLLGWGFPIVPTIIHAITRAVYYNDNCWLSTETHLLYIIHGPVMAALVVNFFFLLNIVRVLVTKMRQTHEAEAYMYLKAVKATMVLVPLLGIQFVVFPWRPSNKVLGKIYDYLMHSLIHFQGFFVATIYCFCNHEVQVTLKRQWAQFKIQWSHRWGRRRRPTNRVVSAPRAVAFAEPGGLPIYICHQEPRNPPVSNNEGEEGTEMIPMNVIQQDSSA
Test: IC50 on rat calcitonin receptor divided by IC50 on rat amylin receptor (SPA competition)
Numbered stars: 1 amine (or outer) side, 2 acyl side, 3 side chain; on linkers, the order of the positions; unused ones are H or OH. Bridge positions count the residues as written; N and C are the ends. Side chains are listed from the residue outwards. Ends that are not written are not given here. * marks the point of attachment. C20 diacid = O=C(O)CCCCCCCCCCCCCCCCCCC(=O)*; γGlu = O=C(O)[C@H](CCC(=O)[*:2])N[*:1]; AEEA = NCCOCCOCC(=O)O
assayEndpoint: Ratio rCT/rAmylin binding

• K([AEEA-γGlu-C20 diacid])RCNTATCATQRLANFLRHSSPNFGAIPSSTNVGSHTY-NH2 (disulfide 3-8 (inferred), analogue of human amylin extended by Lys at the N-terminus; also called compound 45) = 67.1
• K([γGlu-C20 diacid])CNTATCATQRLAEFLRHSSPNFGAIPSSTNVGSRTY-NH2 (disulfide 2-7 (inferred), analogue of human amylin; also called compound 51) = 119
• K(C20 diacid)CNTATCATQRLANFLRHSSPNFGAIPSSTNVGSNTY-NH2 (disulfide 2-7 (inferred), analogue of human amylin; also called compound 42) [N^ε1-19-carboxynonadecanoyl-[Arg17,Pro21,Pro27]-h-amylin] = 25.4
• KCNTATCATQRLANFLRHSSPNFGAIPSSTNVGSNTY (C20 diacid-gGlu on the alpha amino group of the N-terminal residue (Lys 1); disulfide bridge between the two Cys residues; C-terminal amide, analogue of human amylin; also called compound 21) [N^α1-[(4S)-4-carboxy-4-(19-carboxynonadecanoylamino)butanoyl]-[Arg17,Pro21,Pro27]-h-amylin] = 18.8
• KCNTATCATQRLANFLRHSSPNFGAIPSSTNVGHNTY (C20 diacid-gGlu on the alpha amino group of the N-terminal residue (Lys 1); disulfide bridge between the two Cys residues; C-terminal amide, analogue of human amylin; also called compound 40) [N^α1-[(4S)-4-carboxy-4-(19-carboxynonadecanoylamino)butanoyl]-[Arg17,Pro21,Pro27,His34]-h-amylin] = 46.2
• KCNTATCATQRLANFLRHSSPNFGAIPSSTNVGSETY (C20 diacid-gGlu on the alpha amino group of the N-terminal residue (Lys 1); disulfide bridge between the two Cys residues; C-terminal amide, analogue of human amylin; also called compound 23) [N^α1-[(4S)-4-carboxy-4-(19-carboxynonadecanoylamino)butanoyl]-[Arg17,Pro21,Pro27,Glu35]-h-amylin] = 71.3
• {C20 diacid-γGlu}-KCNTATCATQRLAEFLRHSSPNFGAIPSSTNVGSRTY-NH2 (disulfide 2-7 (inferred), analogue of human amylin; also called compound 16) = 45.6
• K([AEEA-γGlu-C20 diacid])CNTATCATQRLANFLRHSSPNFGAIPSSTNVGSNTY-NH2 (disulfide 2-7 (inferred), analogue of human amylin; also called compound 41) = 54
• {C20 diacid-γGlu}-KCNTATCATQRLAHFLRHSSPNFGAIPSSTNVGSETY-NH2 (disulfide 2-7 (inferred), analogue of human amylin; also called compound 30) = 36.1
• {C20 diacid-γGlu}-KCNTATCATQRLANFLRHSSPNFGAIPSSTNVGPETY-NH2 (disulfide 2-7 (inferred), analogue of human amylin; also called compound 29) = 67
